Here we gather pIC50 data for Histone-lysine N-methyltransferase EHMT2 (Homo sapiens, UniProt Q96KQ7) reported by several publications.
Target: Histone-lysine N-methyltransferase EHMT2 (Homo sapiens, UniProt Q96KQ7)
Sequence (Q96KQ7 whole entry): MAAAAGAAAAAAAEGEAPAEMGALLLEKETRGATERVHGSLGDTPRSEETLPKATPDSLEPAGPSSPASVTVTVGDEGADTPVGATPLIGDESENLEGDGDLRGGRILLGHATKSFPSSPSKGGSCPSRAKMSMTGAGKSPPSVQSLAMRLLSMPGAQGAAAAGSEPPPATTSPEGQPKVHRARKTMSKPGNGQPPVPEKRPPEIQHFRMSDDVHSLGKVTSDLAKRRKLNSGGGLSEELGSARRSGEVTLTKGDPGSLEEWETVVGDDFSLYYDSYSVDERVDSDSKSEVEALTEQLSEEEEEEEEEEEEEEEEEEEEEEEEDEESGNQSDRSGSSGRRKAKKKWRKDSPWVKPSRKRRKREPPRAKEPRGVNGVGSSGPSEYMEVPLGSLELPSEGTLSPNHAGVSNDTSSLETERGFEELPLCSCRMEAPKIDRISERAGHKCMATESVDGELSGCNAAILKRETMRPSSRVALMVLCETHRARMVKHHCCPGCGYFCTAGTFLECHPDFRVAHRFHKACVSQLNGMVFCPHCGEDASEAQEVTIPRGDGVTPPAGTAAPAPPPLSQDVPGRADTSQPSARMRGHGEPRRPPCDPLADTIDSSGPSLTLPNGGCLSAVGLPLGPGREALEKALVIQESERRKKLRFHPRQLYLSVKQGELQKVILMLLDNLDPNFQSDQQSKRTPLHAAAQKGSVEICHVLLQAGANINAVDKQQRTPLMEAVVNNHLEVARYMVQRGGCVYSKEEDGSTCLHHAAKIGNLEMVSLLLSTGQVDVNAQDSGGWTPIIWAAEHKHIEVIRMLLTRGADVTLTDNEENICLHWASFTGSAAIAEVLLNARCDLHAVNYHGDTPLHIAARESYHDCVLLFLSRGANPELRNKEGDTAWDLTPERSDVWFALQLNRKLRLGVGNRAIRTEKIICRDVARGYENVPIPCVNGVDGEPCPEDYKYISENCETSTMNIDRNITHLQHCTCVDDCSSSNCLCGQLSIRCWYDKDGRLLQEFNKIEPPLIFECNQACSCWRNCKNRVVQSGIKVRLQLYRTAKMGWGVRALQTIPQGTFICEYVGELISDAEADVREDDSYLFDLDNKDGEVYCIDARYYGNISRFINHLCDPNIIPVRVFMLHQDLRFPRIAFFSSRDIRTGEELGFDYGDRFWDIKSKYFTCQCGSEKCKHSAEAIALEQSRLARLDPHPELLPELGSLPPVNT
pIC50: −log10 of the molar value.
MEASURED_ENDPOINT: pIC50

CN(C)CCNc1cc(N2CCCCC2)c2noc3c2c1C(=O)c1ccccc1-3 5.43

a. COc1ccc(C(=O)Oc2ccc(CCn3c(NC(=O)c4ccc(C(F)(F)F)cc4)nc4cc(C(=O)O)ccc43)cc2)cc1
b. O=C1c2ccccc2-c2onc3c(N4CCN(c5ncccn5)CC4)cc(NCCN4CCCC4)c1c23
c. CNc1cc(C)nc(Nc2ccc(OC)c(C3=CCCN(C)C3)c2)n1
// query Order the records by pIC50, with each subsequent value no larger than the one before. Response field: labels, in requested order.
// result a, c, b
(a: 6.97, c: 6.35, b: 5.34)
